Collected literature values of Ki measured for Vasopressin V1b receptor (Homo sapiens, UniProt P47901).

| compound | parameter | result |
| --- | --- | --- |
| CCOc1ncccc1[C@]1(NC(=O)N2CC(N3CCC(N4CCC(O)CC4)CC3)C2)C(=O)N(S(=O)(=O)c2ccc(OC)cc2OC)c2ccc(C#N)cc21 | Ki | < 1 nM |
| CCOc1ncccc1[C@]1(NC(=O)N2CC(N3CCC(N4CCOCC4)CC3)C2)C(=O)N(S(=O)(=O)c2ccc(OC)cc2)c2ccc(C#N)cc21 | Ki | < 1 nM |
| COc1ccc(S(=O)(=O)N2C(=O)C(c3cc(OC)ccc3OC)(N3CCN(c4ccncc4)CC3)c3cc(OC)ccc32)c(OC)c1 (stereo not drawn) | Ki | < 50 nM |
| COc1ccc(S(=O)(=O)N2C(=O)[C@@](NC(=O)N3CC(N4CCC(N5CCOCC5)CC4)C3)(c3cc(OC)ccc3OC)c3cc(C#N)ccc32)c(OC)c1 | Ki | < 1 nM |
| COc1ccc(S(=O)(=O)N2C(=O)C(c3ccc(CN(C)C)cc3OC)(N3CCC[C@H]3C(=O)N(C)C)c3cc(Cl)ccc32)c(OC)c1 (stereo partly drawn) | Ki | 1 to 10 nM |

Next compound, Ki to be filled in.
Entry CCOc1cc(F)ccc1C1(N2CCN(c3ccncc3)CC2)C(=O)N(S(=O)(=O)c2ccc(OC)c3cccnc23)c2ccc(C#N)cc21 (racemic) , tested on Vasopressin V1b receptor (Homo sapiens, UniProt P47901), has a reported Ki of 10 to 50 nM

----------
// merged dataset of pKi values, system = Vasopressin V1b receptor (Homo sapiens, UniProt P47901), multiple refs
pKi: −log10 of the molar value.

| compound | pKi |
| --- | --- |
| CCOc1ncccc1C1(Nc2ccc(C(=O)N3CCN(C)CC3)cc2)C(=O)N(S(=O)(=O)c2ccc(OC)cc2OC)c2ccc(C#N)cc21 (stereo not drawn) | 7.00 to 8.00 |
| CCN1CCN(Cc2ccc(C3(N4C[C@H](O)C[C@H]4c4ncco4)C(=O)N(S(=O)(=O)c4ccc(C#N)cc4)c4ccc(Cl)cc43)c(OC)c2)CC1 (stereo partly drawn) | > 8.00 |
| CCOc1ccccc1C1(N2CCN(c3ccncc3)CC2)C(=O)N(S(=O)(=O)c2ccc(OC)cc2OC)c2ccc(-c3ccco3)cc21 (stereo not drawn) | 6.30 to 7.30 |
| CNCc1ccc(OC)c(C2(N3CCC[C@H]3c3ncco3)C(=O)N(S(=O)(=O)c3ccc(OC)cc3)c3ccc(C#N)cc32)c1 (stereo partly drawn) | > 8.00 |
| CCOc1ncccc1C1(Nc2ccc(N3CCN(C)CC3)cc2)C(=O)N(S(=O)(=O)c2ccc(OC)cc2)c2ccc(I)cc21 (stereo not drawn) | 8.00 to 9.00 |
| CCOc1ccccc1C1(NC(=O)N2CCN(C3CCN(C)CC3)CC2)C(=O)N(S(=O)(=O)c2ccc(OC)cc2)c2cc(F)c(C#N)cc21 (stereo not drawn) | 8.00 to 9.00 |

The compound listed as CCOc1ncccc1C1(NC(=O)N2CCC(N3CCN(CC)CC3)CC2)C(=O)N(S(=O)(=O)c2ccccc2)c2ccc(C#N)cc21 (racemic) has a reported pKi of > 8.00

For CC(C)NC(=O)Cn1c(-c2cccc(Cl)c2)nc2ccc([C@H]3C[C@@H](CN4CCOC[C@H]4C)C3)cc2c1=O the compound record lists pKi as 8.00 to 9.00

The compound CCOc1ccc(OC)cc1C1(N2CCN(c3ccnc(CC)c3)CC2)C(=O)N(S(=O)(=O)c2ccc(OC)cn2)c2ccc(C#N)cc21 (racemic) showed pKi equal to > 8.00
